Values were extracted from paper PMC10668032.

Entries and their binding signal
Target: SIX1 homeodomain (reference allele) (human, UniProt Q15475 108-198)
Sequence: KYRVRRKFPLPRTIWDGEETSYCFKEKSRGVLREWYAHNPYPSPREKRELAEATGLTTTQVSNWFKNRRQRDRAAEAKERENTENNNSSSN
Experiment: universal protein binding microarray; Universal all-10-mer PBM (8x60K, AMADID 030236), 300 nM GST-tagged protein, Alexa Fluor 488 anti-GST; buffer, salt, pH and temperature not stated (as in Berger); high values mean tight binding
Conditions: protein: ivt; tags: N-terminal GST; dsDNA, one strand shown
Whole data set: some 33,000 sequences, median “e-score” near -0.053, cut for the highest 2% near 0.38. Only a selection was taken, and the highest values are over-represented in it overall.
measurement-type: binding signal (E-score)

INSERT INTO measurements (chain_sequence, unit_info, observed_value) VALUES
  ('ATATACGC', 'E-score', 0.244),
  ('AGATCGTA', 'E-score', 0.237),
  ('GATCAATC', 'E-score', 0.366),
  ('ACGCGATA', 'E-score', 0.316),
  ('CCGGATTC', 'E-score', 0.249),
  ('CCCAAGCA', 'E-score', 0.263),
  ('CATTAATA', 'E-score', 0.154),
  ('TACGCGCA', 'E-score', 0.174),
  ('CGATAATA', 'E-score', 0.328),
  ('CGGATTAG', 'E-score', 0.251),
  ('CCGCGATA', 'E-score', 0.411),
  ('ACCCGGAA', 'E-score', 0.184),
  ('ACTATCAA', 'E-score', 0.253),
  ('ATCACATC', 'E-score', 0.284),
  ('AATATATC', 'E-score', 0.343),
  ('CGGCGATA', 'E-score', 0.348),
  ('GATAAGGA', 'E-score', 0.183),
  ('GACACCGC', 'E-score', 0.398),
  ('ACCTTATA', 'E-score', 0.17),
  ('ACGGATCT', 'E-score', 0.324),
  ('ACCATCCG', 'E-score', 0.23),
  ('GACTATAC', 'E-score', 0.237),
  ('ACCCGGAT', 'E-score', 0.411),
  ('CACACCGC', 'E-score', 0.164),
  ('GCGCGATA', 'E-score', 0.379),
  ('AGTACGAT', 'E-score', 0.248),
  ('CCCGATCG', 'E-score', 0.323),
  ('ACCCGTAT', 'E-score', 0.391),
  ('AGGGATCG', 'E-score', 0.386),
  ('ACCCGGCT', 'E-score', 0.22),
  ('AATGAGCC', 'E-score', 0.158),
  ('CATCCTAC', 'E-score', 0.157),
  ('GGGGATCA', 'E-score', 0.447),
  ('AAATACGG', 'E-score', 0.19),
  ('ACCCGTAG', 'E-score', 0.156),
  ('AGGGTGTC', 'E-score', 0.435),
  ('CGGGTGGA', 'E-score', 0.236),
  ('ATCCGGAA', 'E-score', 0.295),
  ('GTAGACAC', 'E-score', 0.182),
  ('ATCTCTTG', 'E-score', 0.224),
  ('GGGGTGTA', 'E-score', 0.387),
  ('GTGGTGTA', 'E-score', 0.286),
  ('ATCCATAC', 'E-score', 0.31),
  ('CACGGATC', 'E-score', 0.405),
  ('ACGGATCG', 'E-score', 0.354),
  ('GACACCTC', 'E-score', 0.397),
  ('CCAGATCC', 'E-score', 0.332),
  ('ACCCGGGA', 'E-score', 0.311),
  ('AGGGATTG', 'E-score', 0.203),
  ('CATACACG', 'E-score', 0.157),
  ('CGATACGA', 'E-score', 0.398),
  ('GATATAGA', 'E-score', 0.318),
  ('GACACCGA', 'E-score', 0.383),
  ('ATCCGGAG', 'E-score', 0.299),
  ('AACACCGA', 'E-score', 0.228),
  ('AATCCGAT', 'E-score', 0.341),
  ('CCAGGGTA', 'E-score', 0.221),
  ('AGTATCAA', 'E-score', 0.444),
  ('CGGGATTA', 'E-score', 0.263),
  ('GCGGATCC', 'E-score', 0.348),
  ('CACACCAC', 'E-score', 0.206),
  ('CGGTTATC', 'E-score', 0.309),
  ('CCGGATCC', 'E-score', 0.424),
  ('GCTAATCC', 'E-score', 0.208),
  ('ATCAAAAA', 'E-score', 0.153),
  ('TACCCGCA', 'E-score', 0.161),
  ('GGGGATTA', 'E-score', 0.302),
  ('AGGGGGTG', 'E-score', 0.186),
  ('CATATATC', 'E-score', 0.341),
  ('CGATAGGA', 'E-score', 0.26),
  ('AACACCAC', 'E-score', 0.255),
  ('AGATACGG', 'E-score', 0.401),
  ('ACAAGGTA', 'E-score', 0.192),
  ('CACACCTC', 'E-score', 0.267),
  ('GCGATCAC', 'E-score', 0.354),
  ('CGGGTGTC', 'E-score', 0.439),
  ('ATCGGTTG', 'E-score', 0.238),
  ('GATATATC', 'E-score', 0.441),
  ('GGATTGTA', 'E-score', 0.162),
  ('ATACGCTG', 'E-score', 0.268),
  ('AGGGTGTA', 'E-score', 0.313),
  ('GCGATCAA', 'E-score', 0.18),
  ('GTGATCAC', 'E-score', 0.306),
  ('CGAATCCA', 'E-score', 0.165),
  ('CACCGGCA', 'E-score', 0.188),
  ('CGGGATCA', 'E-score', 0.417),
  ('GGCAGATA', 'E-score', 0.216),
  ('AGAGATCG', 'E-score', 0.255),
  ('AACCGTAT', 'E-score', 0.275),
  ('AGATACGC', 'E-score', 0.349),
  ('GATCTGCC', 'E-score', 0.334);
